Measured TGI, listed per entry.
System: BT-549 breast
test method notes: NCI tumour cell line growth inhibition, 48 h
Your answer is read as µM, so omit the unit and give the number.

Reference set (5 entries):
{"columns": ["molecule", "readout unit", "TGI"],
 "data": [
  ["O=C1c2[nH]c3ccccc3c2CCN2CCCCC12 (centres undefined)", "µM", 65.8],
  ["Clc1ccc2c(c1)C(Br)c1cc(Cl)cc(Cl)c1-2 (centres undefined)", "µM", 41.6],
  ["Cc1ccc(O)c(C(c2ccc(C(c3cc(C)ccc3O)c3cc(C)ccc3O)cc2)c2cc(C)ccc2O)c1", "µM", 3.49],
  ["CCCCCCCCCCS(=O)CC(CO)NC(=O)/C=C/c1c(C)[nH]c(=O)[nH]c1=O (centres undefined)", "µM", 25.1],
  ["O=c1cc(-c2ccccc2)c2ccc(O)c(CN(CCCl)CCCl)c2o1", "µM", 25]
]}

# TGI (molecule: "CCOC(=O)/C=C(/C(=O)OCC)n1cc(C)c(=O)n(/C(=C/C(=O)OCC)C(=O)OCC)c1=O" ) is 15.9

The measured TGI associated with "c1ccc2cc(C[n+]3ccn(CCCCCCCCCCCCn4cc[n+](Cc5ccc6ccccc6c5)c4)c3)ccc2c1" reads 1.17

Sample "COc1ccc(-c2cc(-c3ccccc3)nc(SCCCC(=O)NO)n2)cc1OC" ; TGI observed: 12.4

Query "CN(C)CCNc1ccc2nnn3c4ccccc4c(=O)c1c23" yields TGI of 32.3

Value of measured TGI for the entry C=C(CNCCc1ccc(O)cc1)[C@@H]1CC[C@]2(CO)CC[C@]3(C)[C@H](CC[C@@H]4[C@@]5(C)CCC(NCCc6ccc(O)cc6)C(C)(C)[C@@H]5CC[C@]43C)[C@@H]12 (some centres undefined) : 3.06

So for "CC(C)(C)c1ccc(C(C)(C)C)c(N2C(=O)[C@@H]3[C@@H]4C=C[C@@H](C4)[C@]3(C)C2=O)c1" , the logged TGI turned out to be 57.7

Consider C[C@@]1(Br)C[C@@](C)(Cl)[C@@H](Br)CC1/C=C/Cl (some centres undefined) . Its measured TGI is 36

Entry under test: CN(CCCCCl)P(=O)(OCC1=CC(=O)c2ccccc2C1=O)OC[C@H]1O[C@@H](n2cc(F)c(=O)[nH]c2=O)C[C@@H]1O (some centres undefined) . Its TGI was 22.3

Ref: PubChem BioAssay (NCI)
